# Test system: HEK293T
# Assay text: median enrichment of reporter reads in eGFP-reduced (low/intermediate) vs eGFP-high sorted cells (eGFP-extension fusion abundance) (ratio); higher = stronger loss of eGFP-fusion protein abundance (more destabilising extension)
Assign class by median enrichment: not lower than 5 means t; lower than 5 means f.

Past entries and their recorded results:
SNVIPLKRKMNNTLN [HRG] = f
WQGLPQHQSGDCDREGLAGTPRASGVVTDQEGLARTSANICGAAANNAAITENMVLVLKNVQCHFQQFKINRQNHPVARIT [OR2T2] = t
LTEPCWPAPTSLCSFLWFLLSFPTLRREIYFTALNSL [UBTD2] = t
EKPSRRKNSLSQFSKEPRILQRMCEDFPVLDGE [SAMD7] = f
SLRSLRAGPSAAGSCLNTSLDMARTHRDTGQDQPCLWRQDTTIWPMAVTSCRVQSQTGNHHLRQDLPASFTFLISRALPPILC [SLC22A13] = t
RAPPLTEAAPPTAPNKNVKTNPRT [NDUFA3] = f
QEITRWHQPRALARYGEGTWGPHLPPGLFREDPTVTPPSAVGAWRWAAGLNPPWGAPFLLPICVYIHK [MEF2B] = t
KGRGPAESPCCLLEPPADAVLGPT [MBD3] = f
EMALSPPRSWGQ [Degron APPBP2] = t
LRQRQHQCRACPAALSLHALRAPLLLRYPFETSGAGPLPASLTIPRPLSHLGLGKPDSTQDQGSHEARRLRGSCPFSYSRA [SHOX2] = t

## Task Reported median enrichment at or above 5? WSFSHSSPSQRCDGRWTLSGEDALLLGRCSGSFSGARTEAPCDFRPGSMWACNFLHSQLGPIPGFKMVAIPEESP [SUSD1]
## Result f

## Task What would you report for WQDLLTSS [VN1R4] ?
## Result f

## Task What would you report for YLVIHAFFPGQGSRVTRPPETSQEARALFK [SNX19] ?
## Result t

## Task What would you report for SIILSPFGSCVERECEIYIISFWERLVLDAP [HSP90B1] ?
## Result t

## Task What would you report for KNAPSDLASKKSCSVPCVLSFKGIFRINSDLEDSSVLQRLAFIFIVIMEMLSFILSYIRKKGVMQLISISLGNALVLFSSFLV [CREB5] ?
## Result t

## Task What would you report for LPDFGAAEAT [ELP6] ?
## Result f

## Task What would you report for QTGRLDF [RPL24] ?
## Result f

## Task What would you report for KSYLSLSNGMKLDNFKKLSRTKGERNTCSFSCN [KLHL4] ?
## Result t

## Task What would you report for LVLDKREAWKTPHASYHTSVLWLLSFEVLYCNLLICMECAYFLKGY [MED6] ?
## Result t

---

# Tested on: HEK293T;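 also: lentiviral eGFP-IRES-mCherry reporter pool sorted by FACS 96 h post-transduction, gated on mCherry-high cells, Illumina read counts normalized per million, median across four biological replicates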
# Assay text: median enrichment of reporter reads in eGFP-reduced (low/intermediate) vs eGFP-high sorted cells (eGFP-extension fusion abundance) (ratio); higher = stronger loss of eGFP-fusion protein abundance (more destabilising extension)
Assign class by median enrichment: not lower than 5 means 1; lower than 5 means 0.

Past entries and their recorded results:
WPRLSTCHLLACLTLRTHLPGPSLFHPREAELPKTQVFSYLFPILRGFP [ZDHHC18] = 1
SPGEKL [ZNF322] = 0
LDVQDL [ZMPSTE24] = 0
LECSPFPCPGWQGRGRVKGMCCNTEDRKKKPLDTARDGG [ORMDL3] = 1
CCSSVKEQQTWHWNRVENPGFCTWRGKMPSCFLINPNFIYSSGTLWG [OPALIN] = 1

Now consider a different substance.
## Task Reported median enrichment at or above 5? WEDPPEE [IGF1]
## Result 0
